# Tested on: HCC-2998 colon
# testName: NCI-60 one-dose screen, 48 h
# conditionLabel: 10 µM unless noted
The panel holds about 83,000 compounds, 20% with a hit somewhere; the sample as a whole holds those more often. Calls of active or inactive are those of the source. Rule for the calls: active = growth percent below 10; inactive = the rest.
Please reply with one of these outcomes: YES (active), NO (inactive)

Look up the recorded call for C[C@H]1OC(=O)/C=C/[C@@H](O)[C@@H](O)CCCCCCCC[C@@H]1O in this test.
NO

Look up the recorded call for CCOc1ccc(NC(=O)c2ccccc2-c2ccccc2C(=O)O)cc1 in this test.
NO

Look up the recorded call for O=C1CCN2C(=O)Nc3ccccc3C2C1 (stereo not given) in this test.
NO

Look up the recorded call for CC(C)=CCC/C(C)=C/CC/C(C)=C/CC/C(C)=C/CSC[C@H](NC(=O)CCCCCN1CCN(C)CC1)C(=O)NC1CCCCC1 in this test.
NO

Look up the recorded call for O=C1CNCCN1 in this test.
NO

More entries:
Look up the recorded call for OCCNc1nc(Nc2ccc(Cl)c(Cl)c2)nc2ccccc12 in this test.
YES

Look up the recorded call for C=C(C)[C@@H]1CC[C@]2(CN)CC[C@]3(C)[C@H](CC[C@@H]4[C@@](C)(CCCN)[C@H](C(=C)C)CC[C@]43C)[C@@H]12 in this test.
NO

Look up the recorded call for c1ccc2[nH]c(-c3cc(-c4ccc5c(c4)OCO5)n[nH]3)nc2c1 in this test.
NO

Look up the recorded call for Cc1ccc(Cc2cnc(NC(=O)/C=C/c3cccc(C)c3)s2)cc1 in this test.
NO

Look up the recorded call for Cc1csc(Nc2nc(-c3ccc(Cl)cc3)nc(C(Cl)(Cl)Cl)n2)n1 in this test.
NO

* * *

# Tested on: OVCAR-3 ovarian
# testName: NCI-60 one-dose screen, 48 h
# conditionLabel: 10 µM unless noted
Compounds without any hit were thinned out: in the full panel of roughly 83,000, 20% have a hit. The source made the active and inactive calls. How the source made its calls: active means growth percent below 10; inactive means the rest.
Please reply with one of these outcomes: active, inactive

Answered examples (7):
Look up the recorded call for COc1ccc(OCC(CO)N2CCN(c3ccccc3)CC2)cc1 (stereo not drawn) in this test.
inactive

Look up the recorded call for COc1ccc2c(c1)c(-c1nc(-c3c[nH]c4ncccc34)cs1)cn2CCCN1CCCCC1 in this test.
inactive

Look up the recorded call for Cn1nc(-c2ccccc2)c2c(-c3ccccc3)onc2c1=O in this test.
inactive

Look up the recorded call for CC(C)/C=C/CC[C@](C)(O)[C@H]1CC[C@]2(C)[C@@H]1CC[C@@H]1[C@@]3(C)C/C(=C/c4cccc(C(F)(F)F)c4)C(=O)C(C)(C)[C@@H]3CC[C@]12C in this test.
inactive

Look up the recorded call for Nc1c(C(=O)Nc2cccc3ccccc23)sc2nc3c(cc12)CCCC3 in this test.
active

Look up the recorded call for Cn1c(=O)c2c(ncn2CCC(=O)Nc2ccc(F)cc2)n(C)c1=O in this test.
inactive

Look up the recorded call for C[C@H]1[C@@H]2[C@H]3CC[C@@H]4[C@@]5(C)Cc6c([nH]c7ccccc67)C(C)(C)[C@@H]5CC[C@@]4(C)[C@]3(C)CC[C@]23CO[C@]1(C)[C@@H](C(=O)/C=C/c1ccccn1)C3 in this test.
inactive

More entries:
Look up the recorded call for O=C(NO)c1ccc(Cn2c(=O)n(CCc3ccc(O)cc3)c(=O)c3ccccc32)cc1 in this test.
inactive

* * *

growth values by entry
# Test system: OVCAR-8 ovarian
# testName: NCI-60 one-dose screen, 48 h (100 = growth as untreated, 0 = no growth, -100 = all killed)
# conditionLabel: 10 µM unless noted
About 83,000 compounds went through this panel and 20% of them were active in at least one assay; those are over-represented in the sample as a whole.
Report the value in % with no unit label.

Some compounds with known growth results, for comparison:
# lookup: growth of COc1cc2c3c(c4c5ccccc5[nH]c4c2c(OC)c1OC)C(=O)N(O)C3=O
36.8

# lookup: growth of O=S(=O)(NCCCNc1cc(-c2cn(-c3ccccc3)nc2-c2cccc(O)c2)ccn1)c1ccc(F)cc1
23.4

More entries:
# lookup: growth of CC(C)/C=C/CC[C@](C)(O)[C@H]1CC[C@]2(C)[C@@H]1CC[C@@H]1[C@@]3(C)C/C(=C/c4cccc(C(F)(F)F)c4)C(=O)C(C)(C)[C@@H]3CC[C@]12C
87.6

# lookup: growth of CCN1CCN(C(=O)[C@]23CCC(C)(C)C[C@@H]2C2=CC[C@@H]4[C@@]5(C)C/C(=C/c6ccncc6)C(=O)C(C)(C)[C@@H]5CC[C@@]4(C)[C@]2(C)CC3)CC1
7.29

# lookup: growth of COc1cc2c(cc1-c1c(C)noc1C)ncc1nc(C3CCC(F)(F)CC3)n([C@@H](C)COC(F)F)c12
46.1

# lookup: growth of N#CC1C(=N)Cc2ccccc2-c2ccccc21 (stereo not drawn)
63.1

# lookup: growth of Cc1cc(N(CCCNc2ccnc3cc(Cl)ccc23)Cc2ccco2)nc(Cl)n1
41.2

# lookup: growth of CCOC(=O)C/C(=C\c1ccccc1)C(C)=O
90.9

* * *

# Test system: M14 melanoma
# testName: NCI-60 one-dose screen, 48 h (100 = growth as untreated, 0 = no growth, -100 = all killed)
# conditionLabel: 10 µM unless noted
About 83,000 compounds went through this panel and 20% of them were active in at least one assay; those are over-represented in the sample as a whole.
measuredQuantity: growth (%)
Report the value in % with no unit label.

# lookup: growth of Oc1ccc(CCC2CCCC(CCc3ccc(OCCF)cc3)N2)cc1 (stereo not given)
90.4

* * *

# System: HCT-15 colon
# testName: NCI-60 one-dose screen, 48 h
# conditionLabel: 10 µM unless noted
Compounds without any hit were thinned out: in the full panel of roughly 83,000, 20% have a hit. Calls of active or inactive are those of the source. Rule for the calls: active = growth percent below 10; inactive = the rest.
Please reply with one of these outcomes: active, inactive

Look up the recorded call for CN1CCN(c2ccc3nc(-c4[nH]ncc4Nc4ncnc5[nH]ccc45)[nH]c3c2)CC1 in this test.
active

Look up the recorded call for COc1cc(/C=C/c2cc(/C=C/c3ccc(O)c(OC)c3)n(-c3ccc(Cl)cc3)c(=O)n2)ccc1O in this test.
inactive

Would you kindly look at the next entry?
Look up the recorded call for Nc1nc2c(c(=O)[nH]1)C(c1ccc3c(c1)OCO3)C=C(C(=O)O)N2 (centres undefined) in this test.
inactive

* * *

# Tested on: SK-MEL-28 melanoma
# testName: NCI-60 one-dose screen, 48 h (100 = growth as untreated, 0 = no growth, -100 = all killed)
# conditionLabel: 10 µM unless noted
Compounds without any hit were thinned out: in the full panel of roughly 83,000, 20% have a hit.
growth values by entry
Report the value in % with no unit label.

# lookup: growth of COc1ccc(-c2nc(Nc3ccc(-c4nc5ccccc5[nH]4)cc3)nc(N3CCOCC3)n2)cc1
-34

# lookup: growth of O=C(O)c1cccc2c1C(=O)N(c1ccc3c(c1)Cc1ccccc1-3)C2=O
110

# lookup: growth of CC(=O)O[C@H]1CC[C@]2(C)[C@H]3CC=C4[C@@H]5[C@H](C)[C@@H](C)CC[C@]5(C(=O)NCCNCCNCCN)CC[C@@]4(C)[C@]3(C)CC[C@H]2C1(C)C
90.1

# lookup: growth of Cc1cc(N2CCCC2)nc(N(CCNc2ccnc3cc(Cl)ccc23)Cc2ccco2)n1
31

# lookup: growth of Cc1nn(-c2ccc(Cl)cc2)c(=O)n1CCn1cnc2ccccc21
114

# lookup: growth of C=C(C)[C@@H]1CC[C@]2(C)[C@H](CC=C3[C@@H]4CC(C)(C)CC[C@]4(C=O)CC[C@]32C)[C@@]1(C)CCCN
89.4

# lookup: growth of Cc1ccc2c(c1)c(-c1nc(-c3c[nH]c4ncccc34)cs1)cn2C
109

# lookup: growth of C=C(C)[C@@H]1CC[C@]2(C=O)CC[C@]3(C)[C@H](CC[C@@H]4[C@@]5(C)C/C(=C/c6cccnc6)C(=O)C(C)(C)[C@@H]5CC[C@]43C)[C@@H]12
93.3

# lookup: growth of COc1cc(OC)c2c(c1)c1nc3cc(C)c(C)cc3nc1n2CCN(C)C
104

# lookup: growth of Cc1ccc2c(c1)c1nc3cc(C)c(C)cc3nc1n2CCN(C)C
17.2

# lookup: growth of O=C1NC(=Nc2ccc(S(=O)(=O)Nc3nccs3)cc2)S/C1=C\c1coc2ccccc2c1=O
111

# lookup: growth of COc1cc(-c2cc(-c3nc4ccccc4[nH]3)[nH]n2)cc(OC)c1OC
61.8

# lookup: growth of COC(=O)C(N)CSC(c1ccccc1)(c1ccccc1)c1ccccc1 (configuration not stated)
49.5

# lookup: growth of COc1ccc2[nH]c(-c3ccc(Cl)cc3)cc(=O)c2c1
104

# lookup: growth of CC1(C)CC[C@]2(C(=O)NCCNCCN)CC[C@]3(C)C(=CC[C@@H]4[C@@]5(C)CCC(=O)C(C)(C)[C@@H]5CC[C@]43C)[C@@H]2C1
38.6

# lookup: growth of COc1cc(C(=O)/C=C/c2cc(-c3ccc4c(c3)OCO4)n[nH]2)cc(OC)c1OC
76.2

# lookup: growth of CC(=O)O[C@H]1CC[C@]2(C)[C@H]3C(=O)C=C4[C@@H]5C[C@](C)(C(=O)N6CCCNCC6)CC[C@]5(C)CC[C@@]4(C)[C@]3(C)CC[C@H]2C1(C)C
-74.5
